Where these numbers come from: PubChem BioAssay

- protocol.notes: inhibitors of CD8+ T cell-vesicle binding, pilot screen, LFA-1/ICAM-1 modulator project, MLPCN validation set, flow cytometry (AID 2523)
- condition.description: 2C mouse CD8+ T cells, at 7 µM, stronger effect = lower value; measured here: CD8+/vesicle+ event percentage
// reported double positive events per item
Please state the figure in %; there is no need to write the unit.

Query: double positive events; subject: Cc1ncc([N+](=O)[O-])n1CC(O)CCl (centres undefined) 59.5

Query: double positive events; subject: O=C1OC(=O)C2C1[C@@H]1CC[C@H]2O1 (some centres undefined) 60.8

Query: double positive events; subject: "COc1ccc(-c2c(NC(=O)c3ccco3)n(C)c3ccccc3c2=O)cc1" 58.6

Query: double positive events; subject: "O=C(Nc1ccccc1)c1ccccc1CCc1ccccc1" 61.3

---

- protocol.notes: LAP4-GFP expression modulators in yeast, confirmation, cell-based, cherry picks, flow cytometry, mother/daughter gates (AID 2271);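 note: ratio of sample to DMSO plate mean so 100% equals DMSO level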
- condition.description: S. cerevisiae LAP4-GFP strain, 3 h, at 10 µM, stronger effect = higher value, 100 means same as DMSO control
measure: GFP response relative to DMSO (%)
Please state the figure in %; there is no need to write the unit.

query.smiles	GFP response relative to DMSO (%)
CCOc1ccccc1/C=C/C(=O)c1ccc(Cl)cc1	99.2
O=C(Nc1ccccc1C(F)(F)F)c1cc(-c2ccc(O)cc2)on1	108
COc1ccc(C(=O)c2no[n+]([O-])c2C(=O)c2ccc(OC)cc2)cc1	149
Cc1ccc(S(=O)(=O)Nc2cc(Cl)c(O)c3ncccc23)cc1	122

Consider now this further compound.
Query: GFP response relative to DMSO; subject: "Cc1ccc2nc(/C(C#N)=C/c3ccc(O)c(O)c3)[nH]c2c1" 123

---

- protocol.notes: LAP4-GFP expression modulators in yeast, confirmation, cell-based, cherry picks, flow cytometry, mother/daughter gates (AID 2271);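 note: ratio of sample to DMSO plate mean so 100% equals DMSO level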
- condition.description: S. cerevisiae LAP4-GFP strain, 3 h, measured here: daughter cell gate response, at 10 µM, stronger effect = higher value, 100 means same as DMSO control
// reported GFP response relative to DMSO per item
Please state the figure in %; there is no need to write the unit.

compound	endpoint.value
O=C(Nc1c2c(nn1-c1ccccc1)CS(=O)C2)c1ccco1 (centres undefined)	96
CC(=O)Nc1ccc(NC(=O)c2nc(S(=O)(=O)Cc3cccc(C)c3)ncc2Cl)cc1	97.2
COc1ccccc1C(=O)N1CCN(c2cccc(Cl)c2)CC1	102
Cc1ccc(-c2ccc(CCC(=O)O)o2)cc1	139
O=C(Nc1ccccc1)c1ccccc1O	107

Query: GFP response relative to DMSO; subject: "CCOC(=O)COc1c(Cl)cc(/C=C2\N=C(C)OC2=O)cc1OC" 108

Query: GFP response relative to DMSO; subject: "Cc1nc2c(-c3ccc(F)cc3)c(C)nn2c(N2CCOCC2)c1C" 96.5

Query: GFP response relative to DMSO; subject: "CCOc1ccc2ccccc2c1C(=O)N1CCN(c2ccccc2)CC1" 105

Query: GFP response relative to DMSO; subject: "CCN(CC)C(=O)Cn1c(C)c(/C=C/c2cc[n+](C)cc2)c2ccccc21" 110

Query: GFP response relative to DMSO; subject: Cc1ccc(N2CC(C(=O)OCc3nnc(-c4ccccc4)o3)CC2=O)cc1 (centres undefined) 104

Query: GFP response relative to DMSO; subject: "CCCOc1ccc(C(=O)NNC(=S)NC(=O)c2ccccc2)cc1" 136

---

// reported GFP response vs DMSO per item
- protocol.notes: modulators of MEP2-GFP levels in yeast, confirmation, S. cerevisiae, flow cytometry GFP, cherry picks (AID 2272);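 note: ratio of well signal to plate DMSO mean so 100% equals DMSO level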
- condition.description: S. cerevisiae MEP2-GFP strain, 3 h, at 10 µM, stronger effect = higher value
Please state the figure in %; there is no need to write the unit.

In the examples that follow, each entry is paired with its recorded GFP response vs DMSO.
molecule	GFP response vs DMSO / %
Cn1cnnc1SCC(=O)Nc1nc(-c2ccc(F)cc2)cs1	103
Fc1ccc(C2Nc3cccc4cccc(c34)N2)cc1	97.8
COc1ccc(-c2ccc(CCC(=O)O)o2)cc1	102
Cc1ccc(C(=O)Sc2cccccc2=O)cc1	132
CSc1ccc(-c2cc(=O)c3ccccc3o2)cc1	95.2
CCCc1[nH]nc2c1C(c1ccc(OC(=O)N3CCOCC3)c(OC)c1)C(C#N)=C(N)O2 (stereo not given)	100
O=C1C(Cl)=C(Nc2ccccc2O)C(=O)N1CCc1ccccc1	112
N#C/C(=C\c1ccc(N2CCOCC2)o1)c1ccccc1	104

Query: GFP response vs DMSO; subject: "O=C(Nc1c2ccccc2nc2ccccc12)C(Cl)(Cl)Cl" 98.8

Query: GFP response vs DMSO; subject: "Cc1cc(-n2nc(C)cc2C)n2ncc(-c3ccccc3)c2n1" 103

---

- protocol.notes: modulators of CIT2-GFP expression in yeast, confirmation, S. cerevisiae, GFP fusion, cherry picks, mother/daughter gates (AID 2274)
- condition.description: S. cerevisiae CIT2-GFP strain, flow cytometry, 3 h; measured here: mother cell gate; at 10 µM; stronger effect = higher value
// reported GFP response, % of DMSO per item
Please state the figure in %; there is no need to write the unit.

In the examples that follow, each entry is paired with its recorded GFP response, % of DMSO.
compound	endpoint.value
Cc1ccc(/C=C/c2ccc(N(C)C)cc2)[n+](C)c1	110
COc1ccc2c(c1)c(/C=C/c1cc[n+](C)cc1)cn2C	145
CCN(CC)CCN(C(=O)c1ccc2c(c1)CCCC2)c1nc2cc(OC)c(OC)cc2s1	98
COc1cccc(CNC(=O)CCC(=O)N2Cc3cccc(OC)c3Oc3ncccc32)c1OC	104
Cc1ccccc1NC(=O)c1ccccc1O	98.1

Query: GFP response, % of DMSO; subject: "N#C/C(=C\c1c(N2CCCCC2)nc2ccccn2c1=O)C(=O)NCc1ccco1" 96.8

Query: GFP response, % of DMSO; subject: "Cc1ccc(S(=O)(=O)c2ncccc2N)cc1" 99.7

Query: GFP response, % of DMSO; subject: CC1(C(=O)OCc2cc(=O)n3cc(Br)ccc3n2)CC1(Cl)Cl (stereo not given) 88.8

Query: GFP response, % of DMSO; subject: "CCCn1c(=O)c(C(=O)NCc2ccc(OC)c(OC)c2)c(O)c2ccccc21" 101

Query: GFP response, % of DMSO; subject: O=C(O)C1CCC(NSc2ccccc2[N+](=O)[O-])CC1 (stereo not given) 94.4

Query: GFP response, % of DMSO; subject: "N/C(Cc1ccc(Cl)cc1)=N\OC(=O)c1cccc2ccccc12" 127

Query: GFP response, % of DMSO; subject: "Clc1ccc(Nc2ncnc3ccc(Br)cc23)cc1" 84

Query: GFP response, % of DMSO; subject: COC(=O)Nc1ccc2c(c1)N(C(=O)CCN1CCN3CCCC3C1)c1ccccc1CC2 (stereo not given) 105

Query: GFP response, % of DMSO; subject: "COC(=O)C1CCN(C(=O)COC(=O)CCc2nc3ccccc3c(=O)[nH]2)CC1" 95.6

Query: GFP response, % of DMSO; subject: "COC(=O)c1ccccc1OCC(=O)NC1CCCCC1" 85.5

---

- protocol.notes: RPL19A-GFP modulators, yeast TOR pathway, confirmation, cell-based, S. cerevisiae, flow cytometry, cherry picks, mother/daughter gates (AID 2270)
- condition.description: S. cerevisiae RPL19A-GFP strain, 3 h, measured here: mother cell gate, at 10 µM, stronger effect = lower value, 100 = same GFP as DMSO wells
measure: GFP response vs DMSO
Quick note: number first, unit second.

query.smiles	measure	endpoint.value
COc1ccc(-c2nc3cccc(C)n3c2NCc2ccco2)cc1OC	GFP response vs DMSO	100%
O=C(OCC(=O)N1CCN(C(=O)c2ccco2)CC1)c1cc(-c2ccc(Cl)c(Cl)c2Cl)nc2ccccc12	GFP response vs DMSO	89%
C=CCOc1ccc(C(=O)/C=C2/C(=O)Nc3ccccc32)cc1	GFP response vs DMSO	97.2%
COc1ccc(OC)c(NC(=O)c2cccc3c2C(=O)N(C2CCCCC2)C3)c1	GFP response vs DMSO	98.4%
Cc1cccc(Sc2ccc([N+](=O)[O-])cc2[N+](=O)[O-])n1	GFP response vs DMSO	102%

Query: GFP response vs DMSO; subject: "COc1ccc(-c2sc(C(=O)c3ccc(Cl)cc3Cl)cc2CC(=O)O)cc1" 95.8%

Query: GFP response vs DMSO; subject: "CCC(=O)Nc1cccc(C(=O)/C=C/c2ccccc2)c1" 101%

---

- protocol.notes: modulators of LAP4-GFP expression in yeast, primary screen, S. cerevisiae, multiplex flow cytometry (AID 1873)
- condition.description: 3 h, at 10 µM, stronger effect = higher value
Inconclusive results are not listed. The source made the active and inactive calls.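 How the source made its calls: active means GFP signal, as percent of the solvent control, above the screen mean plus 3 SD, about 149; inconclusive means no reading because the compound's own fluorescence upset strain identification; inactive means the rest.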 Peptide text beside a SMILES is read from it. * marks the point of attachment. Boc = CC(C)(C)OC(=O)*
measure: GFP response vs DMSO

In the examples that follow, each entry is paired with its recorded GFP response vs DMSO.
compound	GFP response vs DMSO
C[C@]12CC[C@@H]3c4cc(O)c(O)cc4CC[C@H]3[C@@H]1CC[C@@H]2O	81.5% (inactive)
COc1ccc(-c2coc3cc(O)cc(O)c3c2=O)cc1	72.6% (inactive)
CC1(C)C2CCC1(C)C(OCC[N+](C)(C)CC(=O)OC1CCCCC1)C2 (stereo unspecified)	78.1% (inactive)
CC(NC(=O)c1ccc(OC2CCN(Cc3ccccn3)CC2)cc1)c1ccccc1 (stereo unspecified)	99.4% (inactive)
O=[N+]([O-])c1cc(/C=N/n2cnnc2)ccc1N1CCCC1	95.4% (inactive)
OC[C@@H](O)[C@@H](O[C@H]1O[C@H](CO)[C@@H](O)[C@H](O)[C@H]1O)[C@H](O)[C@@H](O)CO	92% (inactive)
O=C(c1ccc(-c2ccccc2)c(F)c1)C1CCCN(C(=O)c2cncs2)C1 (stereo unspecified)	108% (inactive)
C#CCN1C(=O)C(O)(CC(=O)c2ccc(OC)c(OC)c2)c2ccccc21 (stereo unspecified)	98% (inactive)

Query: GFP response vs DMSO; subject: "NCCCC(=O)O" 103% (inactive)

Query: GFP response vs DMSO; subject: "O=C(CCCN1CCC(O)(c2ccc(Cl)cc2)CC1)c1ccc(F)cc1" 86.8% (inactive)

Query: GFP response vs DMSO; subject: CC(C)CC(NC(=O)C1CCCN1C(=O)OC(C)(C)C)C(=O)NCC(N)=O (stereo not drawn) (Boc-Pro-Leu-Gly-NH2; configuration not given here) 94.3% (inactive)
